tested on: Integrin alpha-IIb/beta-3 (Homo sapiens, UniProt P05106+P08514)
Sequence (P05106 27-788 limits assumed): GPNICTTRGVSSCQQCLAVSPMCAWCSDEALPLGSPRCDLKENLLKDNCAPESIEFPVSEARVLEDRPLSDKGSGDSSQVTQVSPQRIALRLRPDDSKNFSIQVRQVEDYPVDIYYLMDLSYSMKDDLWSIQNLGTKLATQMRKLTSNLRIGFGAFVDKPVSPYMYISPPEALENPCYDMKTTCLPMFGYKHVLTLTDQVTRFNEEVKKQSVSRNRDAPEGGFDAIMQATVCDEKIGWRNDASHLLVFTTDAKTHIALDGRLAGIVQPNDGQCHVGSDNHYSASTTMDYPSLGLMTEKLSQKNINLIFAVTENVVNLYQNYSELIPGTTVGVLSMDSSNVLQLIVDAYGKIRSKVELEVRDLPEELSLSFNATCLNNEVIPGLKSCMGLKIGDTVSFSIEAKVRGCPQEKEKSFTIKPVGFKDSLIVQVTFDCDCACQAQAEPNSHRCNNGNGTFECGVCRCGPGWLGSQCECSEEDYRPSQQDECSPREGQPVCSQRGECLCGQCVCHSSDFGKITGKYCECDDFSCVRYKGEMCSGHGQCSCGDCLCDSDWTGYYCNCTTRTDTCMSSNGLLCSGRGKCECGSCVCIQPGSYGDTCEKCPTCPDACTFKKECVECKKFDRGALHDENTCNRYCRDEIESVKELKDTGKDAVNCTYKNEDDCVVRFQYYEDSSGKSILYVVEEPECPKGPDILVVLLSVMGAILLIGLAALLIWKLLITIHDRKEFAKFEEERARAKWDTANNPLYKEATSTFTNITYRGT
Sequence (P08514 32-887 limits assumed): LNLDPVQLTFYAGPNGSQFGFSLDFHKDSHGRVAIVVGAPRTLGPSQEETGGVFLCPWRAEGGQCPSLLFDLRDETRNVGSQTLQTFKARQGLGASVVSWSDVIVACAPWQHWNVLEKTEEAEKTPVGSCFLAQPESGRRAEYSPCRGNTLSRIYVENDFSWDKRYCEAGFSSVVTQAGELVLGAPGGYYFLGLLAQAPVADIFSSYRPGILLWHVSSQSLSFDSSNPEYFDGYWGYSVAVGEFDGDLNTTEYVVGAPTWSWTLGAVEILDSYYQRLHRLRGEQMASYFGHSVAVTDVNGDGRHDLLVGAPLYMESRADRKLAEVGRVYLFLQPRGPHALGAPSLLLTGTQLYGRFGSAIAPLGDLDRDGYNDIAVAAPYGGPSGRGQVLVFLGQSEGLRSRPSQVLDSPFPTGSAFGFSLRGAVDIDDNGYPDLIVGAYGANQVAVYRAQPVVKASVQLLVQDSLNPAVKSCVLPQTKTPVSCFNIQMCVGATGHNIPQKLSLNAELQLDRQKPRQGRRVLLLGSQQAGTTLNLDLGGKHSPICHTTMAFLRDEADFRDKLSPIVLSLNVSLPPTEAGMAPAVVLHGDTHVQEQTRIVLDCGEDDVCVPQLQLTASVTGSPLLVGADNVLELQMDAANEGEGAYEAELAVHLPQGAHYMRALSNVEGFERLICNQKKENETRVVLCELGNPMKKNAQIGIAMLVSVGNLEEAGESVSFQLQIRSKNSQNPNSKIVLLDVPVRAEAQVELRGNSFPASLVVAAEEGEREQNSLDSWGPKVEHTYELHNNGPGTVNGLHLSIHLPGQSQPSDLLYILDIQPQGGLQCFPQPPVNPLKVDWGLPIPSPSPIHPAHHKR
Sequence (P08514 891-1039 limits assumed): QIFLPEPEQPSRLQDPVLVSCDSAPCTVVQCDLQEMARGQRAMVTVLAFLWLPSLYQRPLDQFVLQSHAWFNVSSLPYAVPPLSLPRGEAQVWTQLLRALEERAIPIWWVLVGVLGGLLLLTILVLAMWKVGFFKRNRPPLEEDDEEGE
protocol text: In vitro inhibitory activity against blockage of binding of fibrinogen to purified human GPIIbIIIa
measure name: IC50 (nM)

| compound | tested on | measure name | unit annotation | experimental result |
| --- | --- | --- | --- | --- |
| N=C(N)c1ccc(C(=O)N2CCC3(CCC(C(=O)O)CC3)CC2)cc1 | Integrin alpha-IIb/beta-3 (Homo sapiens, UniProt P05106+P08514) | IC50 | nM | 15000 |

a. O=C(N[C@@H](CNC(=O)C1CCC2(CC1)CCN(c1ccncc1)CC2)C(=O)O)OCc1ccccc1
b. C[C@@H](CC(=O)O)NC(=O)C1CCC2(CC1)CCN(c1ccncc1)CC2
Ask: Between a and b , which one has the lower reported IC50 value? # reply format: chosen label
Result: a
(a: 2 nM, b: 616 nM)

P. CC(CNC(=O)C1CCC2(CC1)CCN(c1ccncc1)CC2)CC(=O)O (stereo unspecified)
Q. O=C(O)CCCC(=O)N1CCC2(CCC(C(=O)N3CCC(C4CCNCC4)CC3)CC2)CC1
R. N[C@@H](CNC(=O)C1CCC2(CC1)CCN(c1ccncc1)CC2)C(=O)O
S. N=C(N)c1ccc(N2CCC3(CCC(C(=O)NCCC(=O)O)CC3)CC2)cc1
Ask: # rank_down: sort by IC50, max first Reply with the labels, ordered as the question asks.
Result: Q, R, P, S
(Q: 100000 nM, R: 830 nM, P: 332 nM, S: 60 nM)

* * *

tested on: Integrin alpha-IIb/beta-3 (Homo sapiens, UniProt P05106+P08514)
protocol text: In vitro inhibitory activity against blockage of binding of fibrinogen to purified human GPIIbIIIa
measure name: IC50 (nM)

| smiles code | IC50 / nM |
| --- | --- |
| O=C(O)CCCNC(=O)C1CCC2(CC1)CCN(c1ccncc1)CC2 | 319 |
| N=C(N)c1ccc(N2CCC3(CCC(C(=O)NCCCC(=O)O)CC3)CC2)cc1 | 5000 |
| O=C(O)CNC1CCC2(CC1)CCN(c1ccncc1)CC2 | 160 |

a. O=C(O)CN1CCC2(CCC(C(=O)N3CCN(c4ccncc4)CC3)CC2)CC1
b. CCCCOC(=O)N[C@@H](CNC(=O)C1CCC2(CC1)CCN(c1ccncc1)CC2)C(=O)O
Ask: Between a and b , which one shows the larger IC50 value? Give the chosen item's label as your response.
Result: a

* * *

tested on: Integrin alpha-IIb/beta-3 (Homo sapiens, UniProt P05106+P08514)
protocol text: In vitro inhibitory activity against blockage of binding of fibrinogen to purified human GPIIbIIIa
measure name: IC50 (nM)

Use the examples below as a reference point.
| smiles code | tested on | IC50, nM |
| --- | --- | --- |
| O=C(O)CCC(=O)N1CCC2(CCC(C(=O)N3CCC(C4CCNCC4)CC3)CC2)CC1 | Integrin alpha-IIb/beta-3 (Homo sapiens, UniProt P05106+P08514) | 100000 |
| O=C(O)COC1CCC2(CC1)CCN(c1ccncc1)CC2 | Integrin alpha-IIb/beta-3 (Homo sapiens, UniProt P05106+P08514) | 250 |

1. O=C(O)CN1CCC2(CCC(C(=O)N3CCC(C4CCNCC4)CC3)CC2)CC1
2. O=C(O)CCN1CCC2(CCC(C(=O)N3CCN(c4ccncc4)CC3)CC2)CC1
Ask: Compare 1 and 2 and name the one whose reported IC50 is smaller. Let me know the label of the one you choose.
Result: 1
